# Test system: HEK-293T
# EXPERIMENTAL_DETAILS: Incucyte cell viability with HEK293T; further: filed as whole numbers so only -1 and 0 and 1 occur
# Type: toxicity, cell-based
# CONDITION_PARAMETERS: human, 0 h, 10 µM, compound concentration 10 uM, replicate number 1, timepoint 0 hours
// values below are reported Growth Rate
Answer field: number only, no words.

Look up and report measured Growth Rate for this entry: CN1C(=O)[C@@H](N2CCc3cn(Cc4ccccc4)nc3C2=O)COc2ccccc21 0

Look up and report measured Growth Rate for this entry: CN([C@@H]1CCc2c(CC(=O)O)c3ccccc3n2C1)S(=O)(=O)c1ccc(F)cc1 0

Look up and report measured Growth Rate for this entry: N#CC(Cc1ccc(O)cc1)c1ccc(O)cc1 (stereo unspecified) 1

Look up and report measured Growth Rate for this entry: C=C1/C(=C\C=C2/CCC[C@]3(C)[C@@H]([C@H](C)/C=C/C=C/C(O)(CC)CC)CC[C@@H]23)C[C@@H](O)C[C@@H]1O 0

Look up and report measured Growth Rate for this entry: O=c1nc(-c2ccccn2)sc2ccccc12 0

Look up and report measured Growth Rate for this entry: Cc1nc(C2CCN(C(=O)c3ccc(OC(F)(F)F)cc3N)CC2)c2ncc(N3CCN(C)CC3)cc2n1 0

Look up and report measured Growth Rate for this entry: O=C(O)C[C@H]1CCc2c1[nH]c1ccc(OCc3ccc(C4CCCC4)c(C(F)(F)F)c3)cc21 0
